The molecules below have reported pIC50 for GSK-3beta (Homo sapiens).
The quantity pIC50 is defined as the negative base-10 logarithm of the molar concentration.

stdin: API: value(readout=pIC50, system=GSK-3beta (Homo sapiens)) for record `O=C(N[C@H]1CCCNC1)c1ccc(O)c2[nH]c(-c3ccc(N4CCNCC4)s3)nc12`
stdout: 7.42

stdin: Report pIC50 for `O=C(N[C@H]1CCCNC1)c1ccc(O)c2[nH]c(C3CC3)nc12` tested on GSK-3beta (Homo sapiens).
Sequence (P49841 whole entry): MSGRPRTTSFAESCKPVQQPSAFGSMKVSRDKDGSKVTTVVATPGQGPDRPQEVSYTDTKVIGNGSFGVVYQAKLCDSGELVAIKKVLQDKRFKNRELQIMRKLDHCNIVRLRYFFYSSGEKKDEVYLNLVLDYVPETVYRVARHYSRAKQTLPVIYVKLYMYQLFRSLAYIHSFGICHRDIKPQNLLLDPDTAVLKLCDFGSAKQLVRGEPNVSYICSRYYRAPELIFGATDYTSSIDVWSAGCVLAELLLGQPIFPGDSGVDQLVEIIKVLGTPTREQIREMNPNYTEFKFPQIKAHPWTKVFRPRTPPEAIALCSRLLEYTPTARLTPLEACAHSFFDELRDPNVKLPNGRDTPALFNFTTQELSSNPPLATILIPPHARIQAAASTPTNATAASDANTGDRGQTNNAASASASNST
stdout: 7.00

stdin: Which measured pIC50 belongs to O=C(NCC1CCCCN1)c1ccc(O)c2[nH]c(C3CC3)nc12 (stereo not drawn) , tested on GSK-3beta (Homo sapiens)?
stdout: 7.00

stdin: Lab request: please report pIC50 under test system GSK-3beta (Homo sapiens) for O=C(NC1CCCNC1)c1ccc(O)c2[nH]c(C3CC4CCC3C4)nc12 (stereo not drawn)
stdout: 6.64

stdin: Find pIC50 (GSK-3beta (Homo sapiens)) for the entry O=C(NCC1CCCCN1)c1ccc(O)c2[nH]c(C3CCCC3)nc12 (stereo not drawn)
stdout: 5.89

stdin: Any idea what pIC50 came out for O=C(N[C@H]1CCCNC1)c1ccc(O)c2[nH]c(C3CC4CCC3C4)nc12 (stereo partly drawn) on GSK-3beta (Homo sapiens)?
stdout: 6.82

stdin: Provide value of pIC50 for this record tested with GSK-3beta (Homo sapiens): O=C(NCC1CCCNC1)c1ccc(O)c2[nH]c(C3CCCC3)nc12 (stereo not drawn)
stdout: 6.89

stdin: Param readout = pIC50; param system = GSK-3beta (Homo sapiens); param query = `O=C(N[C@H]1CC[C@H](O)CC1)c1ccc(O)c2[nH]c(-c3cccs3)nc12` ; response: value
stdout: 7.59

stdin: Record lookup: for GSK-3beta (Homo sapiens), what pIC50 belongs to `O=C(N[C@H]1CCCNC1)c1ccc(O)c2[nH]c(C3CCCC3)nc12` ?
stdout: 6.92

stdin: Notebook: pull reported pIC50 for GSK-3beta (Homo sapiens), entry `O=C(NC[C@@H]1CCCNC1)c1ccc(O)c2[nH]c(Cc3cccs3)nc12`
stdout: 7.00

stdin: Find the measured pIC50: item `NC12CC3CC(C1)CC(NC(=O)c1ccc(O)c4[nH]c(-c5cccs5)nc14)(C3)C2` , target or system GSK-3beta (Homo sapiens).
stdout: 6.48

stdin: Field: pIC50 (GSK-3beta (Homo sapiens)). Entry: O=C(NC1CCC(C(=O)O)CC1)c1ccc(O)c2[nH]c(-c3cccs3)nc12 (stereo not drawn)
stdout: 7.92

stdin: Which pIC50 is reported with GSK-3beta (Homo sapiens) for this entry: O=C(NC1CCCNC1)c1ccc(O)c2[nH]c(C3CC3)nc12 (stereo not drawn) ?
stdout: 6.72

stdin: Form: Entry = O=C(NCC1CCCCN1)c1ccc(O)c2[nH]c(-c3ccccc3)nc12 (stereo not drawn) | System = GSK-3beta (Homo sapiens) | pIC50 = ____
stdout: 5.82

stdin: Form: Entry = NC12CC3CC(C1)CC(NC(=O)c1ccc(O)c4[nH]c(C5CC6CCC5C6)nc14)(C3)C2 (stereo not drawn) | System = GSK-3beta (Homo sapiens) | pIC50 = ____
stdout: 5.72

stdin: Any idea what pIC50 came out for N[C@H]1CC[C@@H](CNC(=O)c2ccc(O)c3[nH]c(C4CC5CCC4C5)nc23)CC1 (stereo partly drawn) on GSK-3beta (Homo sapiens)?
stdout: 6.62

stdin: Requested read-out pIC50, target or system GSK-3beta (Homo sapiens), entry `O=C(NCC1CCNCC1)c1ccc(O)c2[nH]c(C3CC3)nc12`
stdout: 6.49

stdin: // map `O=C(NC1CCNCC1)c1ccc(O)c2[nH]c(C3CC3)nc12` to recorded pIC50 (system: GSK-3beta (Homo sapiens))
stdout: 7.52
